# assayNotes: NCI Yeast Anticancer Drug Screen. Data for the bub3 strain (AID 167)
# conditionParameters: S. cerevisiae bub3 mutant strain, at 50.0 µM
The panel holds about 79,000 compounds, 15% with a hit somewhere; the sample as a whole holds those more often. Calls of active or inactive are those of the source. No stated cut-off is given here; in the data, active means growth inhibition above about 70%; inactive means the rest.
Hi there, use one of these labels in your reply, thanks! active, inactive

>  <compound>
O=[N+]([O-])c1ccc(NC(=S)Nc2ccc([N+](=O)[O-])cc2)cc1

>  <class>
inactive

$$$$

Kindly provide the recorded test outcome for the following compound: `CC(=O)Nc1ccc(O)c(CN2CCN(c3ccccc3)CC2)c1`
inactive

Lab log entry: CC(C)(C)c1cc(C(c2ccc3c(c2)OCO3)N2CCOCC2)c(O)c(C(C)(C)C)c1 (stereo unspecified) — outcome as called in the assay?
inactive

Query: recorded result category for `Nc1ccc(C(=O)Nc2ccc(C(=O)Nc3ccc4c(O)cc(S(=O)(=O)O)cc4c3)cc2)cc1` in this test
inactive

Hello, I am checking results. What call was entered for `CCCCCN(CCCCC)C(=O)C(C)C` ?
inactive

Returns: the outcome recorded for `NC1=C(O)c2cccc3cccc(c23)C1=O` in this assay.
inactive

Assay result, entry `NC(N)=NC(N)=Nc1cccc(S(=O)(=O)c2cccc(N=C(N)N=C(N)N)c2)c1` — outcome?
inactive

What did the test return for `CC(C)(C)c1ccc(S(=O)(=O)/C=C/c2ccccc2)cc1` ?
inactive

====

# assayNotes: NCI Yeast Anticancer Drug Screen. Data for the sgs1 mgt1 strain (AID 161);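 further: 0% = growth of cultures given vehicle only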
# conditionParameters: S. cerevisiae sgs1 mgt1 strain, at 50.0 µM, hits give high values
The panel holds about 79,000 compounds, 15% with a hit somewhere; the sample as a whole holds those more often.
Would you kindly list growth inhibition for each of these compounds?
Answers are plain numbers, in %.

>  <compound>
Nc1c(S(=O)(=O)O)cc(S(=O)(=O)O)c2ccc(N=Nc3ccccc3)c(O)c12

>  <growth inhibition, %>
-10.8

$$$$
>  <compound>
COC(=O)c1cc(NC(=O)Nc2ccc(F)c([N+](=O)[O-])c2)cc(C(=O)OC)c1

>  <growth inhibition, %>
-4.6

$$$$
>  <compound>
Fc1cccc(-c2nnc(-c3cccc4ccccc34)o2)c1

>  <growth inhibition, %>
-0.5

$$$$
>  <compound>
O=C(NCCNCCCNC(=O)c1cc(-c2ccccc2)nc2ccccc12)c1cccc(OCc2ccccc2)c1OCc1ccccc1

>  <growth inhibition, %>
90.3

$$$$
>  <compound>
CCOC(=O)C(C)c1nc2cc(C(F)(F)F)ccc2[nH]c1=O (stereo unspecified)

>  <growth inhibition, %>
8.1

$$$$

Below is a list of compounds. For each, state its recorded growth inhibition.
1. O=[N+]([O-])c1ccc(C2=NOC3COC4C=CC=CC4OCC23)cc1 (stereo unspecified)
2. C=CCn1c(=S)sc2ccccc21
3. O=C(OCCSC(=S)N1CCCCC1)c1ccccc1
4. O=C(O)c1cc2cc(Br)ccc2c(Br)c1O
5. CN1C(c2ccccc2)=C(C#N)C(=O)CC(c2ccccc2)N1C (stereo unspecified)
6. Nc1n[nH]c(CO)n1

1: 11.1; 2: 12.8; 3: 2.4; 4: -8; 5: 30.2; 6: -6.6

====

# assayNotes: NCI Yeast Anticancer Drug Screen. Data for the rad50 strain (AID 155);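 further: 0% = growth of vehicle-only cultures of the same strain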
# conditionParameters: S. cerevisiae rad50 strain growth inhibition; at 50.0 µM; hits give high values
About 79,000 compounds went through this panel and 15% of them were active in at least one assay; those are over-represented in the sample as a whole.
For each entry below, report its growth inhibition value.
Numbers only, in %.

Sample answers from the record:
>  <compound>
CC(N)C(O)C(C)C(=O)O (configuration not stated)

>  <readoutName>
growth inhibition

>  <testValue>
20.8

$$$$
>  <compound>
CCC(=O)n1ncc2ccc([N+](=O)[O-])cc21

>  <readoutName>
growth inhibition

>  <testValue>
3.45

$$$$
>  <compound>
COC1CCC(/C=C(\C#N)C2CCC(OC)CC2)CC1 (configuration not stated)

>  <readoutName>
growth inhibition

>  <testValue>
37.6

$$$$
>  <compound>
CCCCCCCCSc1nc2ccc(N=Cc3ccccc3O)cc2s1

>  <readoutName>
growth inhibition

>  <testValue>
75

$$$$
>  <compound>
C/C(=N\N=C\N(C)S(=O)(=O)c1ccc(C)cc1)c1ccccc1

>  <readoutName>
growth inhibition

>  <testValue>
-10.7

$$$$

Batch lookup, growth inhibition per entry.
1. COc1ccc(CCNC(=O)CC(C)=O)cc1
2. c1csc(C2N3CCN(CC3)C(c3cccs3)N3CCN2CC3)c1 (configuration not stated)
3. CCCCN(Cc1ccccc1)C(=O)Nc1ccccc1
4. CC1O[C@@]2(CC[C@H]3[C@@H]4CCC5=CC(=O)CC[C@]5(C)[C@H]4CC[C@@]32C)C1=O (some centres not stated)
5. Cc1cccc(C)c1NC(=O)Nc1cccc(C(F)(F)F)c1
6. CCCCCCCCCCCSc1ccc2ccccc2c1
7. Brc1cccc(-c2nnc(-c3cccc4ccccc34)o2)c1

-49.2
-1.6
4.5
-0.55
-16.4
5.75
1

====

# assayNotes: NCI Yeast Anticancer Drug Screen. Data for the mlh1 rad18 strain (AID 175)
# conditionParameters: S. cerevisiae mlh1 rad18 strain growth inhibition; at 50.0 µM; hits give high values
This is part of a sample that, as a whole, favours compounds with a hit. Of some 79,000 tested, about 15% had one in any assay.
Kindly state growth inhibition for each of the entries shown.
Answers are plain numbers, in %.

>  <compound>
C(=N/n1nnc(-c2ccccc2)n1)/c1ccccc1

>  <growth inhibition / %>
-6.05

$$$$
>  <compound>
CCOC(=O)CCC(NC(=O)c1ccc(Nc2cnc3ccc(C(F)(F)F)cc3n2)cc1)C(=O)OCC (stereo not drawn)

>  <growth inhibition / %>
-23.8

$$$$
>  <compound>
COC(=O)CNC(=O)C1CSC(C)(C)N1C=O (stereo not drawn)

>  <growth inhibition / %>
-6.2

$$$$

Kindly give each listed record's growth inhibition.
1. c1cnn(C23C4C5C6C4C2C6C53)c1 (stereo not drawn)
2. O=C(OCCN=C1c2ccccc2CCc2ccccc21)c1ccccc1
3. Cc1ccc(S(=O)(=O)Oc2cccc(C)c2)cc1
4. CO[C@H]1C=CO[C@@]2(C)Oc3c(C)c(O)c4c(O)c(c(CN5CCN(C)CC5)c(O)c4c3C2=O)NC(=O)/C(C)=C\C=C[C@H](C)[C@H](O)C(C)[C@@H](O)C(C)[C@H](OC(C)=O)[C@@H]1C (stereo partly drawn)
5. c1ccc(CCN2CCCCCCCC2)nc1
6. CCCCOC(=O)C(C)OP(=O)(OC(C)C(=O)OCCCC)OC(C)C(=O)OCCCC (stereo not drawn)
7. CCSC1=C(SCC)C(=O)C(SCC)=C(SCC)C1=O

-38.6
0.4
33.7
-34.4
-0.35
16.2
15.4

For every item below, please supply its growth inhibition.
1. CCOC(=O)/C(=C\c1cc(C)c(OC(C)=O)c(OC)c1)NC(=O)c1ccccc1
2. CN1CCC(c2ccccc2)(c2ccccc2)C(O)C1 (stereo not drawn)
3. O=[N+]([O-])c1ccc(C2=NOC3COC4C=CC=CC4OCC23)cc1 (stereo not drawn)
4. O=C(Nc1cccc([N+](=O)[O-])c1)C(=O)C(C(=O)c1ccccc1-c1ccccc1)C1OC(=O)c2ccccc21 (stereo not drawn)
5. CCB1OC2C(COC(C)=O)OC(OC(C)=O)C2O1 (stereo not drawn)

-4.25
4.7
-7.5
10.1
-10.1

====

# assayNotes: NCI Yeast Anticancer Drug Screen. Data for the mlh1 rad18 strain (AID 175)
# conditionParameters: S. cerevisiae mlh1 rad18 strain growth inhibition; at 50.0 µM; hits give high values
This is part of a sample that, as a whole, favours compounds with a hit. Of some 79,000 tested, about 15% had one in any assay.
readoutName: growth inhibition (%)
One number for each entry, in %.

>  <molecule>
COc1nc(NC2OC(COC(C)=O)C(OC(C)=O)C(OC(C)=O)C2OC(C)=O)c(-c2csc(N)n2)c(=O)n1C (stereo unspecified)

>  <growth inhibition (%)>
-4.55

$$$$
>  <molecule>
CCCCCCc1cc2cc(C(=O)Nc3nc(C45CC6CC(CC(C6)C4)C5)cs3)c(=O)oc2cc1O

>  <growth inhibition (%)>
-11.7

$$$$
>  <molecule>
CC(NNC(=S)N1CC2CCC(CC2)C1)c1cccc[n+]1[O-] (stereo unspecified)

>  <growth inhibition (%)>
59.6

$$$$
>  <molecule>
c1cc(OCC2CO2)ccc1OCC1CO1 (stereo unspecified)

>  <growth inhibition (%)>
49.4

$$$$

Each molecule below has a recorded value; state its growth inhibition.
1. Cc1cc(C(=O)c2ccccc2)ccc1[N+](=O)[O-]
2. CC(C)(C)c1ccc(S(=O)(=O)/C=C/c2ccccc2)cc1
3. COc1cccc(-c2cc(=O)c3cc(Cl)cnc3[nH]2)c1

1: 7.1; 2: 6.3; 3: 5.1
